measured.target: Phosphorylase b kinase gamma catalytic chain, skeletal muscle/heart isoform (Homo sapiens);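 further: values are averaged percent inhibition of PHKG1 kinase activity, from the GSK PKIS inhibitor-set screen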
test.context: at 0.1 µM
quantity: inhibition (%)

[[record]]
molecule = "CCn1c(-c2nonc2N)nc2c(C#CC(C)(C)O)nc(OC[C@@H](N)c3ccccc3)cc21"
quantity = "inhibition"
reading = 0.84

[[record]]
molecule = "CNC(=O)c1cncc(/C=C/c2c(Cl)cccc2Cl)c1"
quantity = "inhibition"
reading = 0.96

[[record]]
molecule = "CC1=C(C(=O)Nc2ccc3[nH]ncc3c2)C(c2ccc(F)cc2)NC(=O)N1 (centres undefined)"
quantity = "inhibition"
reading = 4.98

[[record]]
molecule = "Cc1nn(C)c2cc(N(C)c3ccnc(Nc4cccc(S(N)(=O)=O)c4)n3)ccc12"
quantity = "inhibition"
reading = 3.53

[[record]]
molecule = "Cc1cc(O)cc(C)c1/C=C/c1cncc(-c2nn[nH]n2)c1"
quantity = "inhibition"
reading = 6.07

[[record]]
molecule = "CCCN1CCC=C(c2ccc(Nc3nc(Nc4ccccc4C(N)=O)c4cc[nH]c4n3)c(C)c2)C1"
quantity = "inhibition"
reading = -1.86

[[record]]
molecule = "CS(=O)(=O)Nc1ccc(N/C=C2\\C(=O)Nc3ccccc32)cc1"
quantity = "inhibition"
reading = 4.32

[[record]]
molecule = "Cc1ccc(NC(=O)c2ccnc(N3CCCC3)c2)cc1-c1ccc(C(=O)NCC2CC2)cc1"
quantity = "inhibition"
reading = 6.43

[[record]]
molecule = "CN1CCC(C(=O)Nc2n[nH]c3nnc(-c4ccccc4)cc23)CC1"
quantity = "inhibition"
reading = 5.33

[[record]]
molecule = "NC(=O)c1ccc(-c2nc(-c3ccccn3)c(-c3ccc4c(c3)OCO4)[nH]2)cc1"
quantity = "inhibition"
reading = 2.92

[[record]]
molecule = "Cc1nnc(-c2ccc(C)c(-c3ccc(C(=O)Nc4cccc(C#N)c4)cc3)c2)o1"
quantity = "inhibition"
reading = 2.07

[[record]]
molecule = "COc1ccc(COc2ccc(Cc3cnc(N)nc3N)cc2OC)cc1"
quantity = "inhibition"
reading = -0.96

[[record]]
molecule = "CC1=C(C(=O)Nc2ccc3[nH]ncc3c2)C(c2ccc3ccccc3c2)CC(=O)N1 (centres undefined)"
quantity = "inhibition"
reading = 2.21

[[record]]
molecule = "Nc1ncnc2occ(-c3ccc(NC(=O)Nc4cccc(C(F)(F)F)c4)cc3)c12"
quantity = "inhibition"
reading = 6.3


====

measured.target: Mitogen-activated protein kinase 12 (Homo sapiens) (UniProt P53778);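 further: values are averaged p38gamma kinase inhibition readings, compounds tested at 1 µM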
Sequence (P53778 whole entry): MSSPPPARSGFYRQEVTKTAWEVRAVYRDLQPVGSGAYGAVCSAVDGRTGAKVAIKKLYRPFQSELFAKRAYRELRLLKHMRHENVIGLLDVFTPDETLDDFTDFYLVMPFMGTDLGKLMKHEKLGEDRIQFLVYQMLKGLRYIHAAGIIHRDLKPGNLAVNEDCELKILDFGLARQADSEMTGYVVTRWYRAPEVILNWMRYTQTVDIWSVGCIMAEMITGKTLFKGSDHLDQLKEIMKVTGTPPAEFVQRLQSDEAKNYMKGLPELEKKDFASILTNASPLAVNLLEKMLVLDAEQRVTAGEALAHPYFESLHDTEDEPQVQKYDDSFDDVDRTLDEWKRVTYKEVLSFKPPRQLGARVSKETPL
test.context: at 1 µM
quantity: inhibition

[[record]]
input_smiles = "Cc1cccc(-c2n[nH]cc2-c2ccc3ncccc3n2)n1"
reading = "0.57%"

[[record]]
input_smiles = "NS(=O)(=O)c1cccc(-c2ccc3c(NC(=O)C4CC4)n[nH]c3c2)c1"
reading = "-1.58%"

[[record]]
input_smiles = "c1cnn2ncc(-c3ccnc(Nc4ccc5c(c4)OCCO5)n3)c2c1"
reading = "6.13%"

[[record]]
input_smiles = "COC(=O)Nc1nc2cc(Oc3ccc(NC(=O)Nc4cccc(C(=O)O)c4)cc3)ccc2[nH]1"
reading = "-0.37%"

[[record]]
input_smiles = "COc1cc2ncn(-c3cc(OCc4ccccc4Cl)c(C(N)=O)s3)c2cc1OC"
reading = "0.85%"


====

Listed here: items and their measured inhibition.
measured.target: Protein kinase C eta type (Homo sapiens) (UniProt P24723);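 further: value is the mean inhibition, from GSK PKIS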
Sequence (P24723 whole entry): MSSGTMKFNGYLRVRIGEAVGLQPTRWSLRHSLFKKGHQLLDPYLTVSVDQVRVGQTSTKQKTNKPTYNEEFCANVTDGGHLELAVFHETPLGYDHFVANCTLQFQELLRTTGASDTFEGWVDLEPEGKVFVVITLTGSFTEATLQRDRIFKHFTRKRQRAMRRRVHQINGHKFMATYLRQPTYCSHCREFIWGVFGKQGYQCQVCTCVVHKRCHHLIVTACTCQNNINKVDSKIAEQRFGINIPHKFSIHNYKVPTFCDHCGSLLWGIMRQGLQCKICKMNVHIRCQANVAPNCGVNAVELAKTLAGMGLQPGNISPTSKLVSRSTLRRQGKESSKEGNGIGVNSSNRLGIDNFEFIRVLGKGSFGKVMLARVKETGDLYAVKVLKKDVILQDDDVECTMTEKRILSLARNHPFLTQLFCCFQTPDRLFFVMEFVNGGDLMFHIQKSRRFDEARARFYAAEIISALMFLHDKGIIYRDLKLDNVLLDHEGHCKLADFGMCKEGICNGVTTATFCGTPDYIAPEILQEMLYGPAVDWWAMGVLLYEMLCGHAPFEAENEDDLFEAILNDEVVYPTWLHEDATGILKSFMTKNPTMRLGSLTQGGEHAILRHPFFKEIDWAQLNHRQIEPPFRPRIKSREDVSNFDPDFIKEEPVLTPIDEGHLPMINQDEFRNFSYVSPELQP
test.context: at 1 µM
quantity: inhibition (%)

[[record]]
molecule = "COc1cc2ncn(-c3cc(OCc4ccccc4Cl)c(C(N)=O)s3)c2cc1OC"
scale_unit = "%"
reading = 2.19

[[record]]
molecule = "N#Cc1c(NC(=O)c2cccc3ccccc23)sc2c1CCCC2"
scale_unit = "%"
reading = 3.65

[[record]]
molecule = "Cc1cc(O)cc(C)c1/C=C/c1cncc(-c2nn[nH]n2)c1"
scale_unit = "%"
reading = 5.67

[[record]]
molecule = "CNC(=O)c1cncc(/C=C/c2c(Cl)cccc2Cl)c1"
scale_unit = "%"
reading = 5.49

[[record]]
molecule = "[O-][S+]1CCN(Cc2ccc(-c3ccc4ncnc(Nc5ccc(OCc6ccccc6)c(F)c5)c4c3)o2)CC1"
scale_unit = "%"
reading = 0.14

[[record]]
molecule = "CCCN1CCC=C(c2ccc(Nc3nc(Nc4ccccc4C(N)=O)c4cc[nH]c4n3)c(C)c2)C1"
scale_unit = "%"
reading = 4.73

[[record]]
molecule = "CCN1CCC(CC(=O)Nc2n[nH]c3nc(-c4cccs4)c(Br)cc23)CC1"
scale_unit = "%"
reading = 0.16

[[record]]
molecule = "O=C1NC(=O)C(c2ccccc2Cl)=C1Nc1cccc(O)c1"
scale_unit = "%"
reading = 5.24

[[record]]
molecule = "CCn1c(-c2nonc2N)nc2cnc(Oc3cccc(NC(=O)c4ccc(OCCN5CCOCC5)cc4)c3)cc21"
scale_unit = "%"
reading = 94.9

[[record]]
molecule = "CS(=O)(=O)CCNCc1ccc(-c2ccc3ncnc(Nc4ccc(OCc5ccccc5)c(Cl)c4)c3c2)o1"
scale_unit = "%"
reading = -1.74

[[record]]
molecule = "CCc1cccc(NC(=O)Nc2ccc(Oc3ccc4nc(NC(=O)OC)[nH]c4c3)cc2)c1"
scale_unit = "%"
reading = 2.14

[[record]]
molecule = "CC(C)=Cc1cccc2c1/C(=N/Nc1ccc(S(N)(=O)=O)cc1)C(=O)N2"
scale_unit = "%"
reading = 2.14

[[record]]
molecule = "Cc1ccc(C(=O)NC2CCCCC2)cc1-c1ccc(C(=O)NCC2CC2)cc1"
scale_unit = "%"
reading = -0.62

[[record]]
molecule = "COc1cc(C=NNc2ncnc3c2cnn3-c2ccccc2)ccc1O"
scale_unit = "%"
reading = 0.52

[[record]]
molecule = "CCn1c(-c2nonc2N)nc2ccncc21"
scale_unit = "%"
reading = 5.32

[[record]]
molecule = "NS(=O)(=O)c1ccc(N/N=C2\\C(=O)Nc3ccc(C(=O)NCCc4c[nH]cn4)cc32)cc1"
scale_unit = "%"
reading = 2.38

[[record]]
molecule = "O=C1Nc2ccc(C(=O)c3ccco3)cc2C1=Cc1cc(Cl)c(O)c(Cl)c1"
scale_unit = "%"
reading = 7.64

[[record]]
molecule = "CC1=C(C(=O)Nc2ccc3[nH]ncc3c2)C(c2ccc(Cl)c(Cl)c2)CC(=O)N1 (centres undefined)"
scale_unit = "%"
reading = 14.1

[[record]]
molecule = "Cn1cc(C=C2C(=O)Nc3cccnc32)c2ccccc21"
scale_unit = "%"
reading = -0.57


The origin of these recorded values is ChEMBL document CHEMBL1961873.
